FACS reading values by entry
- Target system: T1, Claudin 18.2 (CLDN18.2), expressed on CHOS-CLDN 18.2 / HEK293-CLDN 18.2 / HCC827-CLDN 18.2 cells (human, UniProt P56856-2 1-261)
- T1 construct: whole, on cells; The species is not repeated for the CHOS-CLDN 18.2 cells; also called claudin-18A2
- Assay method text: FACS, CHOS-CLDN18.2 cells, 20 µg/ml
Lab note: write the figure by itself, no unit.

Solved cases (3 shown):
>  <Binder>
QP14361435 (antibody, human IgG1, kappa, V domains shown, Humanized from QP190191) VH: EVQLVESGGGLVKPGGSLRLSCAASGFTFSNYAMSWVRQAPGKGLEWVSSIISGGRTYYLDSEKGRFTISRDNAKNSLYLQMNSLRAEDTAVYYCTRIYYGNSFDYWGQGTLVTVSS VL: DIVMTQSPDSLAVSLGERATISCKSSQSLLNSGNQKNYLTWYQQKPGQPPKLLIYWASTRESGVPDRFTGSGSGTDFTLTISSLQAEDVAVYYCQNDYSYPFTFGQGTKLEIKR

>  <FACS reading>
183000

$$$$
>  <Binder>
QP14371435 (antibody, human IgG1, kappa, V domains shown, Humanized from QP190191) VH: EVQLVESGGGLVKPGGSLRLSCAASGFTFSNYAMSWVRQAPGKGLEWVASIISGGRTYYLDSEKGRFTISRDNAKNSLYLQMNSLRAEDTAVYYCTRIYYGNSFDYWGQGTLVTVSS VL: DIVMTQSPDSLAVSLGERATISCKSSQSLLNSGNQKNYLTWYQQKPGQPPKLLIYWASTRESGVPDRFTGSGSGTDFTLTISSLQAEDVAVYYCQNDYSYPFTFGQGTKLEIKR

>  <FACS reading>
134000

$$$$
>  <Binder>
QP190191 (antibody, human IgG1, V domains shown, Chimeric; also called 36A2; mouse-derived chimeric antibody QP190191) VH: EVKLVESGGGLVKPGGSLKLSCAASGFTFSNYAMSWVRQTPEKRLEWVASIISGGRTYYLDSEKGRFTISRDNARNNLYLQMSSLRSEDTAMYYCTRIYYGNSFDYWGQGTTLTVSS VL: DIVMTQSPSSQTVTAGEKVTMSCKSSQSLLNSGNQKNYLTWYQQKPGQPPKLLIYWASTRESGVPDRFTGSGSGTDFTLTISNMQAEDLAVYYCQNDYSYPFTFGSGTKLEIK

>  <FACS reading>
88700

$$$$

Attention now turns to another entry.
Q) Tell me the measured FACS reading of QP14371433 (antibody, human IgG1, kappa, V domains shown, Humanized from QP190191; also called QP14331437) VH: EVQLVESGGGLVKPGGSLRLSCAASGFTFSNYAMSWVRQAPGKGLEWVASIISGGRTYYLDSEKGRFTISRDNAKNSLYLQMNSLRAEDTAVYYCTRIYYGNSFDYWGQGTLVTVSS VL: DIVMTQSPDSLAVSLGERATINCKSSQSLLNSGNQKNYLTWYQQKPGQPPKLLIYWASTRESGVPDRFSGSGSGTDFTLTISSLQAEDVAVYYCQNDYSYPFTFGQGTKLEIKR , please.
A) 115000
